# Study system: RNase-H of HIV-1 reverse transcriptase (Human immunodeficiency virus type 1 group M subtype B)
# Construct: The HIV-1 and HIV-2 reverse transcriptases are the hetero-dimers p.66/p.5 l and p.68/p.55, respectively; made in house; host or cells: E. coli
# Procedure text: Inhibition of the RNase-H of HIV-1 reverse transcriptase
# Format: biochemical
# Test context: 100 μM of each sulfolipid molecular species; residual activity as % of control without inhibitor
Would you mind telling me the reported RNase-H % of initial enzymatic activity of each entry?

# Molecule, RNase-H % of initial enzymatic activity
data = [
    ("CCCCCCCCCCCCCCCC(=O)OCC(COC1OC(CS(=O)(=O)O)C(O)C(O)C1O)OC(=O)CCCCCCCCCCCCCCC (stereo not drawn) [C16:0/C16:0]", "47 + 4%"),
    ("CCCCCCCCC=CCCCCCCCC(=O)OCC(COC1OC(CS(=O)(=O)O)C(O)C(O)C1O)OC(=O)CCCCCCCC=CCCCCCCCC (stereo not drawn) [C18:1/C18:1]", "60 + 2%"),
]

We now examine a further molecule.
Prompt: Write down RNase-H % of initial enzymatic activity measured for item CCCCCCCCC=CCCCCCCCC(=O)OCC(COC1OC(CS(=O)(=O)O)C(O)C(O)C1O)OC(=O)CCCCCCCCCCCCCCC (stereo not drawn) [C18:1/C16:0]
Response: 64 + 6%

* * *

# Study system: DNA polymerase of HIV-1 reverse transcriptase (Human immunodeficiency virus type 1 group M subtype B, UniProt P03366)
# Construct: The HIV-1 and HIV-2 reverse transcriptases are the hetero-dimers p.66/p.5 l and p.68/p.55, respectively; made in house; host or cells: E. coli
# Procedure text: Inhibition of the DNA polymerase of HIV-1 reverse transcriptase
# Format: biochemical
# Test context: concentration that inhibits 90% of the initial enzymatic activity
Answer each item with its documented IC90.
Numbers only, in µg/mL.

Look over these answered cases.
# Compound, Unit text, IC90
data = [
    ("CCCCCC=CCC=CCC=CCCCCC(=O)OCC(COC1OC(CS(=O)(=O)O)C(O)C(O)C1O)OC(=O)CCCCCCCCCCCCCCC (stereo not drawn)", "µg/mL", 533),
    ("CCCCCCC=CCCCCCCCC(=O)OCC(COC1OC(CS(=O)(=O)O)C(O)C(O)C1O)OC(=O)CCCCCCCCCCCCCCC (stereo not drawn)", "µg/mL", 302),
]

Prompt: Identify the reported IC90 for the following entry. CCCCCC=CCC=CCCCCCCCC(=O)OCC(COC1OC(CS(=O)(=O)O)C(O)C(O)C1O)OC(=O)CCCCCCCCCCCCCCC (stereo not drawn)
Response: 281

* * *

# Study system: DNA polymerase of HIV-1 reverse transcriptase (Human immunodeficiency virus type 1 group M subtype B, UniProt P03366)
# Construct: The HIV-1 and HIV-2 reverse transcriptases are the hetero-dimers p.66/p.5 l and p.68/p.55, respectively; made in house; host or cells: E. coli
# Procedure text: Inhibition of the DNA polymerase of HIV-1 reverse transcriptase
# Format: biochemical
# Test context: concentration that inhibits 90% of the initial enzymatic activity
Field 'label' (enum: 1.0 / 0.0). Set to 1.0 when IC90 is strictly under 600 µg/mL; else 0.0.

Worked examples, 2 molecules total:
# Molecule, Class label
rows = [
    ("CCCCCC=CCC=CCCCCCCCC(=O)OCC(COC1OC(CS(=O)(=O)O)C(O)C(O)C1O)OC(=O)CCCCCCCC=CCC=CCCCCC (stereo not drawn) [C18:2/C18:2]", 0.0),
    ("CCCCCCCCCCCCCCCC(=O)OCC(COC1OC(CS(=O)(=O)O)C(O)C(O)C1O)OC(=O)CCCCCCCCCCCCCCC (stereo not drawn) [C16:0/C16:0]", 1.0),
]

Prompt: Could you please tell me whether IC90 recorded for CCCCCCCCC=CCCCCCCCC(=O)OCC(COC1OC(CS(=O)(=O)O)C(O)C(O)C1O)OC(=O)CCCCCCCCCCCCCCC (stereo not drawn) [C18:1/C16:0] is less than 600 µg/mL?
Response: 1.0

Prompt: # strict comparison: is reported IC90 < 600 µg/mL? input = CCCCCC=CCC=CCCCCCCCC(=O)OCC(COC1OC(CS(=O)(=O)O)C(O)C(O)C1O)OC(=O)CCCCCCCC=CCCCCCCCC (stereo not drawn) [C18:2/C18:1]
Response: 0.0

Prompt: In the record for CCCCCCCCC=CCCCCCCCC(=O)OCC(COC1OC(CS(=O)(=O)O)C(O)C(O)C1O)OC(=O)CCCCCCCC=CCCCCCCCC (stereo not drawn) [C18:1/C18:1] , is IC90 less than 600 µg/mL?
Response: 1.0

Prompt: Regarding CCCCCC=CCC=CCCCCCCCC(=O)OC(COC(=O)CCCCCCCC=CCCCCCCCC)COC1OC(CS(=O)(=O)O)C(O)C(O)C1O (stereo not drawn) [C18:1/C18:2] , kindly confirm whether its IC90 is beneath 600 µg/mL.
Response: 0.0

* * *

# Study system: RNase-H of HIV-1 reverse transcriptase (Human immunodeficiency virus type 1 group M subtype B)
# Construct: The HIV-1 and HIV-2 reverse transcriptases are the hetero-dimers p.66/p.5 l and p.68/p.55, respectively; made in house; host or cells: E. coli
# Procedure text: Inhibition of the RNase-H of HIV-1 reverse transcriptase
# Type: biochemical
# Test context: ranking among molecular species
Outcome measure: inhibition of the RNase-H of HIV-1 reverse transcriptase (in words)

# Molecule, Meas value
rows = [
    ("CCCCCCCCCCCCCCCC(=O)OCC(COC1OC(CS(=O)(=O)O)C(O)C(O)C1O)OC(=O)CCCCCCCCCCCCCCC (stereo not shown)", "highest activities"),
    ("CCCCCCCCC=CCCCCCCCC(=O)OCC(COC1OC(CS(=O)(=O)O)C(O)C(O)C1O)OC(=O)CCCCCCCC=CCCCCCCCC (stereo not shown)", "highest activities"),
    ("CCCCCCC=CCCCCCCCC(=O)OCC(COC1OC(CS(=O)(=O)O)C(O)C(O)C1O)OC(=O)CCCCCCCCCCCCCCC (stereo not shown)", "highest activities"),
    ("CCCCCCCCC=CCCCCCCCC(=O)OCC(COC1OC(CS(=O)(=O)O)C(O)C(O)C1O)OC(=O)CCCCCCCCCCCCCCC (stereo not shown)", "highest activities"),
]

* * *

# Study system: DNA polymerase of HIV-1 reverse transcriptase (Human immunodeficiency virus type 1 group M subtype B, UniProt P03366)
# Construct: The HIV-1 and HIV-2 reverse transcriptases are the hetero-dimers p.66/p.5 l and p.68/p.55, respectively
# Procedure text: Inhibition of the DNA polymerase of HIV-1 reverse transcriptase
# Test context: concentration that inhibits 50% of the initial enzymatic activity
Decision: IC50 beneath 90 µM gives condition met; IC50 meeting or exceeding 90 µM gives condition not met.

# Compound, Class label
data = [
    ("CCCCCC=CCC=CCCCCCCCC(=O)OC(COC(=O)CCCCCCCC=CCCCCCCCC)COC1OC(CS(=O)(=O)O)C(O)C(O)C1O (stereo not drawn)", "condition not met"),
    ("CCCCCCCCCCCCCCCC(=O)OCC(COC1OC(CS(=O)(=O)O)C(O)C(O)C1O)OC(=O)CCCCCCCCCCCCCCC (stereo not drawn)", "condition not met"),
    ("CCCCCC=CCC=CCCCCCCCC(=O)OCC(COC1OC(CS(=O)(=O)O)C(O)C(O)C1O)OC(=O)CCCCCCCC=CCC=CCCCCC (stereo not drawn)", "condition not met"),
    ("CCCCCC=CCC=CCC=CCCCCC(=O)OCC(COC1OC(CS(=O)(=O)O)C(O)C(O)C1O)OC(=O)CCCCCCCCCCCCCCC (stereo not drawn)", "condition not met"),
    ("CCCCCCCCC=CCCCCCCCC(=O)OCC(COC1OC(CS(=O)(=O)O)C(O)C(O)C1O)OC(=O)CCCCCCCCCCCCCCC (stereo not drawn)", "condition met"),
    ("CCCCCCC=CCCCCCCCC(=O)OCC(COC1OC(CS(=O)(=O)O)C(O)C(O)C1O)OC(=O)CCCCCCCCCCCCCCC (stereo not drawn)", "condition not met"),
]

Prompt: For this compound, is IC50 lower than 90 µM? CCCCCC=CCC=CCCCCCCCC(=O)OCC(COC1OC(CS(=O)(=O)O)C(O)C(O)C1O)OC(=O)CCCCCCCC=CCCCCCCCC (stereo not drawn)
Response: condition not met

Prompt: Decide: IC50 of CCCCCCCCC=CCCCCCCCC(=O)OCC(COC1OC(CS(=O)(=O)O)C(O)C(O)C1O)OC(=O)CCCCCCCC=CCCCCCCCC (stereo not drawn) strictly below 90 µM?
Response: condition met
